- Test system: HCC1569;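 also: TDF is a line of transformed human dermal fibroblasts of mesenchymal origin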
- ASSAY_INFO: H1.0 immunofluorescence intensity relative to DMSO (% of DMSO); higher = stronger H1.0 induction, active = 140 or more
- ASSAY_SETUP: concentration: 10 µM; 24 h
Cut-off 100 on H1.0 immunofluorescence intensity, inclusive. At or above means yes (1); below means no (0).

[[record]]
compound = "Cc1ccc(C(=CCN2CCCC2)c2ccccn2)cc1.Cl [Triprolidine hydrochloride]"
classification = "no (0)"

[[record]]
compound = "CNCCC(Oc1ccc(C(F)(F)F)cc1)c1ccccc1.Cl (stereo not drawn) [R-(-)-Fluoxetine hydrochloride]"
classification = "yes (1)"

[[record]]
compound = "O=S1(=O)CCN(CN2CCS(=O)(=O)NC2)CN1"
classification = "no (0)"

[[record]]
compound = "COc1cc2ncnc(Nc3ccc(F)c(Cl)c3)c2cc1OCCCN1CCOCC1 [Gefitinib]"
classification = "yes (1)"

[[record]]
compound = "CS(=O)(=O)c1ccc(C2=C(c3ccccc3)C(=O)OC2)cc1"
classification = "yes (1)"

[[record]]
compound = "Cc1cc(C(C)Nc2ccccc2)c2nc(N3CCOCC3)cc(=O)n2c1 (configuration not stated)"
classification = "yes (1)"

[[record]]
compound = "Cn1c(=O)c2[nH]cnc2n(C)c1=O [Aminophylline]"
classification = "no (0)"

[[record]]
compound = "COc1ccc(Nc2nc(N)nc(CN3CCCCC3)n2)cc1"
classification = "no (0)"

[[record]]
compound = "Cc1ccc(C(=O)Nc2ccc(S(=O)(=O)[O-])c3cc(S(=O)(=O)[O-])cc(S(=O)(=O)[O-])c23)cc1NC(=O)c1cccc(NC(=O)Nc2cccc(C(=O)Nc3cc(C(=O)Nc4ccc(S(=O)(=O)[O-])c5cc(S(=O)(=O)[O-])cc(S(=O)(=O)[O-])c45)ccc3C)c2)c1"
classification = "yes (1)"

[[record]]
compound = "N[C@@H](Cc1ccc(O)c(I)c1)C(=O)O"
classification = "no (0)"

